# credit: patent US8071786B2

MEASUREMENT NOTES: Appetite suppression in mice, acute assay (food consumption)
Format: in vivo
CONDITION DETAILS: 10 mg/kg i.p.
READOUT TYPE: % of Control (food consumption 60 min. after injection) (%)
Entry rule: numbers only, all in %.

Req: For the compound shown here, CN(C)CCc1cn(C)c2c(F)ccc(O)c12 , give the reported % of Control (food consumption 60 min. after injection).
Resp: 114

Req: Another compound to check: CN(C)CCc1cn(C)c2c(F)ccc(OP(=O)(O)O)c12
Resp: 74

Req: What do we get for CCNC(C)Cc1cccc(C(F)(F)F)c1 (stereo not shown) [+/−Fenfluramine, Fenfluramine, reference compound] ?
Resp: 30

Req: Subsequent entry: CCCn1cc(CCN(C)C)c2c(OP(=O)(O)O)ccc(F)c21
Resp: 41

----------
SYSTEM UNDER TEST: 5-HT2A (Homo sapiens, UniProt P28223)
Sequence (P28223 whole entry): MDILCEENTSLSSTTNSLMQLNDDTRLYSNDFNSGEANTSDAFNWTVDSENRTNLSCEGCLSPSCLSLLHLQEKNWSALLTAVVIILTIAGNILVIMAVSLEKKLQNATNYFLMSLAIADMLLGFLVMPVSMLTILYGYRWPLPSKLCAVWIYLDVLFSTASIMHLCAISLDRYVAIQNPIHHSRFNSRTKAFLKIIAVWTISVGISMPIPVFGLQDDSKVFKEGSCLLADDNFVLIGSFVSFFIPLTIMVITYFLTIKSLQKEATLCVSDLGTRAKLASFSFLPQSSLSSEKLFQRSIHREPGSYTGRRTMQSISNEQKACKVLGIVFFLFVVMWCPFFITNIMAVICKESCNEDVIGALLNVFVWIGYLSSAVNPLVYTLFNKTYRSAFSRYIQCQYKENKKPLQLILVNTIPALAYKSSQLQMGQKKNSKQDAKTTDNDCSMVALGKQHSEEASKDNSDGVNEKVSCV
MEASUREMENT NOTES: Phosphoinositide hydrolysis functional assay
Format: cell-based
Design: expressed in transfected cells
CONDITION DETAILS: value in brackets
READOUT TYPE: percent Vmax relative to serotonin at 100%, 5-HT2A (%)
Only the number, expressed in %, is required.

Req: Requested read-out percent Vmax relative to serotonin at 100%, 5-HT2A, target or system 5-HT2A (Homo sapiens, UniProt P28223), entry CC(C)n1cc(CCN(C)C)c2c(O)cc(F)cc21
Resp: 89

Req: Would you mind doing CCCn1cc(CCN(C)C)c2c(O)cc(F)cc21 as well?
Resp: 63

Req: Same read-out for CN(C)CCc1cn(C)c2cc(F)cc(O)c12 ?
Resp: 61

Req: Then CN(C)CCc1cn(CC2CC2)c2cc(F)cc(O)c12 ?
Resp: 63

Req: Field entry: CCn1cc(CCN(C)C)c2c(O)cc(F)cc21
Resp: 73

----------
READOUT TYPE: melting point

Req: Which melting point is listed for CC(C)n1cc(CCN(C)C)c2c(O)ccc(F)c21 ?
Resp: 108 to 110 °C

Req: Try the molecule CCCn1cc(CCN(C)C)c2c(O)cc(F)cc21 [Compound O-4285]
Resp: 104 to 106 °C

Req: Then what about the molecule CN(C)CCc1cn(S(C)(=O)=O)c2c(F)ccc(O)c12 ?
Resp: 181 to 183 °C

Req: Also CCCCn1cc(CCN(C)C)c2c(O)cc(F)cc21 [Compound O-4286] ?
Resp: 92 to 95 °C

Req: Repeat with CN(C)CCc1cn(S(C)(=O)=O)c2cc(F)cc(O)c12
Resp: 184 to 186 °C

Req: Again, but for CCCCn1cc(CCN(C)C)c2c(O)ccc(F)c21 [Compound O-4205]
Resp: 87 to 90 °C

Req: Try the molecule CCCn1cc(CCN(C)C)c2c(O)ccc(F)c21 [Compound O-3952]
Resp: 75 to 79 °C

Req: Item: CN(C)CCc1cn(C)c2c(F)ccc(O)c12 [Compound O-3804]
Resp: 134 to 138 °C

Req: Now the same for CN(C)CCc1cn(CC2CC2)c2cc(F)cc(O)c12 [Compound O-4287]
Resp: 110 to 112 °C

Req: Another molecule: CCn1cc(CCN(C)C)c2c(O)ccc(F)c21 [Compound O-3943]
Resp: 114 to 120 °C

Req: Now try CN(C)CCc1cn(C)c2cc(F)cc(O)c12 [Compound O-4244] .
Resp: 132 to 134 °C

Req: Same again, this time with CN(C)CCc1cn(CCF)c2c(F)ccc(O)c12 [Compound O-3975]
Resp: 97 to 101 °C
